test: Phase 1 study Part 2: single-dose plasma pharmacokinetics, relative bioavailability (tablet vs AIC) and food effect in healthy subjects; assay type: in vivo, human; settings: human, plasma, po, 200 mg, Treatment F: 1×200 mg formulated tablet, single oral dose, fed; geometric mean (geometric CV%), N=12; read-out: t1/2 (terminal elimination half-life) (converted)
test.readout: half-life (min)
All answers are understood in min, so give the number only.

### Prompt Find the recorded half-life belonging to C[C@@H]1CC[C@@H](Nc2nc(NC(C)(C)C)ncc2C(N)=O)C[C@H]1O and report it.
### Response 1300

----------
assay: Phase 1 study Part 1: plasma pharmacokinetics after multiple oral doses of Compound 1 as AIC (QD×6 days) in healthy subjects; format: in vivo, human; conditions: human; Treatment C: 400 mg as AIC, oral QD×6 days; healthy subjects, plasma; geometric mean (geometric CV%), N=15
test.readout: Cmax
Answer with the figure and its unit, nothing else.

### Prompt Find the recorded Cmax belonging to C[C@@H]1CC[C@@H](Nc2nc(NC(C)(C)C)ncc2C(N)=O)C[C@H]1O [Compound 1] and report it.
### Response 4460 ng/mL

----------
test: Solid state chemical stability under stress conditions (HPLC with UV detection); conditions: solid state, open vial, 80° C., 2 weeks, HPLC with UV detection
test.readout: % Remaining at 80° C.

Study these solved cases before continuing.
compound	reported.value
C[C@@H]1CC[C@@H](Nc2nc(NC(C)(C)C)ncc2C(N)=O)C[C@H]1O.O=P(O)(O)O	101.1%
C[C@@H]1CC[C@@H](Nc2nc(NC(C)(C)C)ncc2C(N)=O)C[C@H]1O.O=S(=O)(O)O	100.0%

### Prompt Find the recorded % Remaining at 80° C. belonging to O=C(O)[C@H](O)[C@@H](O)C(=O)O [L-tartrate] and report it.
### Response 98.7%

### Prompt Would you mind doing C[C@@H]1CC[C@@H](Nc2nc(NC(C)(C)C)ncc2C(N)=O)C[C@H]1O.O=C(O)C[C@H](O)C(=O)O [L-malate] as well?
### Response 87.7%

### Prompt Would you mind doing C[C@@H]1CC[C@@H](Nc2nc(NC(C)(C)C)ncc2C(N)=O)C[C@H]1O as well?
### Response 101.8%

### Prompt Would you mind doing CC(O)C(=O)O.CC1CCC(Nc2nc(NC(C)(C)C)ncc2C(N)=O)CC1O [L-lactate] as well?
### Response 100.4%

### Prompt Would you mind doing CC1CCC(Nc2nc(NC(C)(C)C)ncc2C(N)=O)CC1O.Cl (stereo not shown) [HCl] as well?
### Response 101.2%

----------
assay: Phase 1 study Part 2: single-dose plasma pharmacokinetics, relative bioavailability (tablet vs AIC) and food effect in healthy subjects; format: in vivo, human; conditions: human, 200 mg; Treatment D: 2×100 mg as AIC, single oral dose, fasted; healthy subjects, plasma; geometric mean (geometric CV%), N=12; read-out: AUCτ (time 0 to the last quantifiable concentration)
test.readout: AUC(0-t) (ng·h/mL)
All answers are understood in ng·h/mL, so give the number only.

### Prompt Find the recorded AUC(0-t) belonging to C[C@@H]1CC[C@@H](Nc2nc(NC(C)(C)C)ncc2C(N)=O)C[C@H]1O and report it.
### Response 12900

----------
assay: Phase 1 study Part 2: single-dose plasma pharmacokinetics, relative bioavailability (tablet vs AIC) and food effect in healthy subjects; type: in vivo, human; settings: human, plasma, po, 200 mg, Treatment E: 1×200 mg formulated tablet, single oral dose, fasted; geometric mean (geometric CV%), N=12; read-out: AUC∞
test.readout: AUC(0-inf)

### Prompt Find the recorded AUC(0-inf) belonging to C[C@@H]1CC[C@@H](Nc2nc(NC(C)(C)C)ncc2C(N)=O)C[C@H]1O and report it.
### Response 12200 ng·h/mL

----------
experiment: Solid state physical stability under stress conditions (XRPD); assay type: physicochemical; settings: 80° C./75% RH; XRPD vs initial material
test.readout: Physical stability (open vial, 2 weeks)

Study these solved cases before continuing.
molecule	Physical stability (open vial, 2 weeks)
C[C@@H]1CC[C@@H](Nc2nc(NC(C)(C)C)ncc2C(N)=O)C[C@H]1O.O=C(O)C[C@H](O)C(=O)O [L-malate]	form change
CC1CCC(Nc2nc(NC(C)(C)C)ncc2C(N)=O)CC1O.Cl (stereo not drawn) [HCl]	form change
C[C@@H]1CC[C@@H](Nc2nc(NC(C)(C)C)ncc2C(N)=O)C[C@H]1O.O=P(O)(O)O [Compound H3PO4]	no change
CC(O)C(=O)O.CC1CCC(Nc2nc(NC(C)(C)C)ncc2C(N)=O)CC1O [L-lactate]	form change
C[C@@H]1CC[C@@H](Nc2nc(NC(C)(C)C)ncc2C(N)=O)C[C@H]1O.O=S(=O)(O)O [Compound H2SO4]	form change

Then this molecule:
### Prompt Find the recorded Physical stability (open vial, 2 weeks) belonging to O=C(O)[C@H](O)[C@@H](O)C(=O)O [L-tartrate] and report it.
### Response no change

----------
experiment: Phase 1 study Part 1: plasma pharmacokinetics after multiple oral doses of Compound 1 as AIC (QD×6 days) in healthy subjects; assay type: in vivo, human; conditions: human, plasma; Treatment B: 160 mg as AIC, oral QD×6 days; geometric mean (geometric CV%), N=15; read-out: Cmin (plasma concentration at 24 hours postdose)
test.readout: concentration at 24 h (ng/mL)
All answers are understood in ng/mL, so give the number only.

### Prompt Find the recorded concentration at 24 h belonging to C[C@@H]1CC[C@@H](Nc2nc(NC(C)(C)C)ncc2C(N)=O)C[C@H]1O and report it.
### Response 65

----------
assay: Hygroscopicity by dynamic vapor sorption (DVS); assay type: physicochemical; settings: DVS, 25° C.
test.readout: hygroscopicity (sorption/desorption, in words)

Study these solved cases before continuing.
compound	reported.value
C[C@@H]1CC[C@@H](Nc2nc(NC(C)(C)C)ncc2C(N)=O)C[C@H]1O.O=P(O)(O)O	not hygroscopic
CC1CCC(Nc2nc(NC(C)(C)C)ncc2C(N)=O)CC1O.Cl (stereo not drawn) [HCl]	hygroscopic
C[C@@H]1CC[C@@H](Nc2nc(NC(C)(C)C)ncc2C(N)=O)C[C@H]1O.O=C(O)C[C@H](O)C(=O)O [L-malate]	hygroscopic
C[C@@H]1CC[C@@H](Nc2nc(NC(C)(C)C)ncc2C(N)=O)C[C@H]1O	not hygroscopic

Then this compound:
### Prompt Find the recorded hygroscopicity (sorption/desorption, in words) belonging to C[C@@H]1CC[C@@H](Nc2nc(NC(C)(C)C)ncc2C(N)=O)C[C@H]1O.O=S(=O)(O)O and report it.
### Response hygroscopic

----------
assay: Phase 1 study Part 1: plasma pharmacokinetics after multiple oral doses of Compound 1 as AIC (QD×6 days) in healthy subjects; assay type: in vivo, human; conditions: human, plasma; Treatment C: 400 mg as AIC, oral QD×6 days; geometric mean (geometric CV%), N=15; read-out: Cmin (plasma concentration at 24 hours postdose)
test.readout: concentration at 24 h (ng/mL)
All answers are understood in ng/mL, so give the number only.

### Prompt Find the recorded concentration at 24 h belonging to C[C@@H]1CC[C@@H](Nc2nc(NC(C)(C)C)ncc2C(N)=O)C[C@H]1O [Compound 1] and report it.
### Response 212

----------
assay: Solubility in water and SGF (24 hours, ambient temperature, HPLC/UV); type: physicochemical; conditions: pH 2.2, thermodynamic from solid; simulated gastric fluid without pepsin, ambient temperature, 24 hours; read-out: Solubility in SGF (equiv. to free base)
test.readout: solubility at 24 h (mg/mL)
All answers are understood in mg/mL, so give the number only.

### Prompt Find the recorded solubility at 24 h belonging to C[C@@H]1CC[C@@H](Nc2nc(NC(C)(C)C)ncc2C(N)=O)C[C@H]1O and report it.
### Response 7.17

----------
assay: Phase 1 study Part 2: single-dose plasma pharmacokinetics, relative bioavailability (tablet vs AIC) and food effect in healthy subjects; type: in vivo, human; settings: human, plasma, po, 200 mg, Treatment F: 1×200 mg formulated tablet, single oral dose, fed; geometric mean (geometric CV%), N=12; read-out: Cmax
test.readout: Cmax (ng/mL)
All answers are understood in ng/mL, so give the number only.

### Prompt Find the recorded Cmax belonging to C[C@@H]1CC[C@@H](Nc2nc(NC(C)(C)C)ncc2C(N)=O)C[C@H]1O and report it.
### Response 1840

----------
test: Phase 1 study Part 2: single-dose plasma pharmacokinetics, relative bioavailability (tablet vs AIC) and food effect in healthy subjects; assay type: in vivo, human; conditions: human, plasma, po, 200 mg, Treatment D: 2×100 mg as AIC, single oral dose, fasted; N=12; read-out: Cmax, Geometric Mean (ANOVA LS mean)
test.readout: Cmax (ng/mL)
All answers are understood in ng/mL, so give the number only.

### Prompt Find the recorded Cmax belonging to C[C@@H]1CC[C@@H](Nc2nc(NC(C)(C)C)ncc2C(N)=O)C[C@H]1O and report it.
### Response 2080
